Molecular target: ~100 representative kinases (Homo sapiens)
Construct: Recombinant protein kinase domains with a concentration of 2 μM
Sequence (Q96NX5 whole entry, the tested form may be a part): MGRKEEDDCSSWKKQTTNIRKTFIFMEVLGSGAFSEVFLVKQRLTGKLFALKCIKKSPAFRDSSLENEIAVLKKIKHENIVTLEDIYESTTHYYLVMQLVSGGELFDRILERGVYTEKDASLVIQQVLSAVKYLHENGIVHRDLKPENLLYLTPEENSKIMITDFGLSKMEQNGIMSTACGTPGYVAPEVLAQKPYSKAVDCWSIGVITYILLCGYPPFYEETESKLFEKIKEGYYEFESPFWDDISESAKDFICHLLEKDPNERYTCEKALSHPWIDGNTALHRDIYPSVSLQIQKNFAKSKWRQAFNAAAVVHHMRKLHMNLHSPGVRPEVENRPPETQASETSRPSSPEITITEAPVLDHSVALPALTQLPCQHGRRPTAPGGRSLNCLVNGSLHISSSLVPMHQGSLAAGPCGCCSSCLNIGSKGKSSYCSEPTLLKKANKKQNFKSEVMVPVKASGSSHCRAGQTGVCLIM
Experiment: DSF 100 kinase selectivity screen;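 note: compound tested at 20 µM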
Assay type: binding
Conditions: Protein CAMK1G; average of three replicates
Method: Recombinant protein kinase domains with a concentration of 2 μM were mixed with a 20 μM compound solution in dimethyl sulfoxide (DMSO), 20 mM Hepes (pH 7.5), and 500 mM NaCl. SYPRO Orange (5000×, Invitrogen) was added as a fluorescence probe (1μl/ml). Subsequently, temperature-dependent protein unfolding profiles were measured using the QuantStudio 5 realtime PCR machine (Thermo Fisher Scientific, Waltham, MA, USA). […] The temperature was raised with a step rate of 3°C/min. […]
measured.endpoint: dTm
Kindly write the number and append the unit.

Cc1ccc(-n2nc(C(C)(C)C)cc2NC(=O)Nc2cccc(-c3c[nH]c4ncnc(N5CCOCC5)c34)c2)cc1 : 3.88 K
Cc1cc(F)ccc1NC(=O)C1(C(=O)Nc2cccc(-c3c[nH]c4ncnc(N5CCOCC5)c34)c2)CC1 : 0.49 K
CC(C)(C)c1cccc(NC(=O)C2(C(=O)Nc3cccc(-c4c[nH]c5ncnc(N6CCOCC6)c45)c3)CC2)c1 : 4.22 K

**Query** Quick check: dTm of O=C(Nc1cccc(-c2c[nH]c3ncnc(N4CCOCC4)c23)c1)C1(C(=O)Nc2ccc(F)c(Br)c2F)CC1 ?
**Result** 4.69 K
